percentage signal reduction of hMAb005/PD1 interaction overview
- MEASURED_TARGET: T1, biotinylated human PD1-His/AviTag (human, UniProt Q15116 25-170, limits assumed, biotinylated)
- T1 construct: also called human PD1 protein (Alphascreen); not shown: His/AviTag
- T1 sequence (Q15116 25-170 limits assumed): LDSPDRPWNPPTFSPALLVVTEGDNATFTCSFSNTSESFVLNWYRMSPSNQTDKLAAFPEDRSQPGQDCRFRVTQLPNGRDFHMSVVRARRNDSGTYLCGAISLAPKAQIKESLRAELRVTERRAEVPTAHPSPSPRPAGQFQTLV
- EXPERIMENT_NOTES: Alphascreen epitope competition, Fab periprep; competitor hMAb005 IgG1 null on biotinylated human PD1-His/AviTag

As a guide, the following entries are already answered.
BINDER | RESULT
MAB02B03 Fab (Fab, V domains shown, Library-derived clone screened as human IgG1-kappa Fab in E. coli periplasmic extract; also called MAB02B03 (periprep Fab)) VH: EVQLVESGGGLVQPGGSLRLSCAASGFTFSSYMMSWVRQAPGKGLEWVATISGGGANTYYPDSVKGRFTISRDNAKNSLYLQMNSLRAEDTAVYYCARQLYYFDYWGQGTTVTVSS VL: DIQMTQSPSSLSASVGDRVTITCLASQPLGIWLSWYQQKPGKAPKLLIYTATSLADGVPSRFSGSGSGTDFTLTISSLQPEDFATYYCQQVYSIPWTFGGGTKVEIK | > 75%
MAB02D08 Fab (Fab, V domains shown, Library-derived clone screened as human IgG1-kappa Fab in E. coli periplasmic extract; also called MAB02D08 (periprep Fab)) VH: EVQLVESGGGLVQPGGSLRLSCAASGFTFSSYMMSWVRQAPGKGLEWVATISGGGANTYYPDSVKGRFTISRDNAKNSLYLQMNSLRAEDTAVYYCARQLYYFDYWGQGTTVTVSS VL: DIQMTQSPSSLSASVGDRVTITCLASQESGIWLSWYQQKPGKAPKLLIYTATSLADGVPSRFSGSGSGTDFTLTISSLQPEDFATYYCQQVYSIPWTFGGGTKVEIK | > 75%

Proceeding to the next binder to report its percentage signal reduction of hMAb005/PD1 interaction.
Q) Assign percentage signal reduction of hMAb005/PD1 interaction to the following record: MAB02A03 Fab (Fab, V domains shown, Library-derived clone screened as human IgG1-kappa Fab in E. coli periplasmic extract; also called MAB02A03 (periprep Fab)) VH: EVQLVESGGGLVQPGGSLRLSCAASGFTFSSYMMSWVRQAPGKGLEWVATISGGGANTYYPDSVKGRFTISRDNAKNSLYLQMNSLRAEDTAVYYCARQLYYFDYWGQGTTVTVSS VL: DIQMTQSSSSLSASVGDRVTITCLASQGIGPWLSWYQQKPGKAPKLLIYTATSLADGVPSRFSGSGSGTDFTLTISSLQPEDFATYYCQQVYSIPWTFGGGTKVEIK
A) 75%
